B1: HEEH_KT_rd6_0790 (parent)
chain: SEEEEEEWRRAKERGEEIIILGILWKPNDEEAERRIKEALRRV

- Variants of: B1
- assay-protocol: folding stability dG (cDNA display proteolysis); higher = more stable
- condition-label: PBS, room temperature
// values below are reported folding stability dG
Report as a plain number; the unit kcal/mol is understood.

mutant-code	readout-name	scale-unit	test-result
E33L	folding stability dG	kcal/mol	1.7
V43C	folding stability dG	kcal/mol	2.36
W25M	folding stability dG	kcal/mol	0.967
R41E	folding stability dG	kcal/mol	1.89
I20H	folding stability dG	kcal/mol	0.981

Query: What value of folding stability dG has been reported for the following variant? G15F
Response: 1.57

Query: What value of folding stability dG has been reported for the following variant? E5A
Response: 1.74

Query: What value of folding stability dG has been reported for the following variant? W25A
Response: 0.981
